// half-life at 0.1 mg/ml lookup, one value per entry
# EXPERIMENTAL DETAILS: Human plasma half-life assay
# Format: in vitro ADME
# PARTICULARS: human plasma, 37° C., LC-MS; read-out: Human Plasma T½ (converted)
Where no end group is shown, it is not given here. [ ]: non-standard residue; d: D form. Ac6c = NC1(C(=O)O)CCCCC1; Nle = CCCC[C@H](N)C(=O)O; Ac5c = NC1(C(=O)O)CCCC1; Aib = CC(C)(N)C(=O)O
EXPERIMENTAL ENDPOINT: half-life at 0.1 mg/ml

1) Y[Aib]EGTF[Ac6c]SDYSIAMDKIHQQDFVNWLLAQKGKKNDWKHNI[Aib]Q-OH [Example 23, (Aib^2, 41, A6c^7)hGIP(1-42)-OH] = > 48 h
2) Y[Aib]EGTF[Ac6c]SDYSIA[Nle]DKIHQQDFVNWLLAQKGKKNDWKHNI[Ac6c]Q-OH [Example 29, (Aib^2, A6c^7, 41, Nle^14)hGIP(1-42)-OH] = > 48 h
3) Y[Aib]EGTF[Ac6c]SDYSIA[Nle]DKIHQQDFVNWL[Ac6c]AQKGKKNDWKHNITQ-OH [Example 27, (Aib^2, A6c^7, 27, Nle^14)hGIP(1-42)-OH] = > 48 h
4) Y[Aib]EGTFISDY[Ac5c]IA[Nle]DKIHQQDFVNWLLAQKGKKNDWKHNITQ-OH [Example 54, (Aib^2, A5c^11, Nle^14)hGIP(1-42)-OH] = > 56 h
5) Y[Aib]EGTF[Ac6c]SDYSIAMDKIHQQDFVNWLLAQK[Aib]KKNDWKHNITQ-OH [Example 22, (Aib^2, 31, A6c^7)hGIP(1-42)-OH] = > 48 h
6) Y[Aib]EGTF[Ac6c]SDYSIA[Nle]DK[Ac6c]HQQDFVNWLLAQKGKKNDWKHNITQ-OH [Example 37, (Aib^2, A6c^7, 17, Nle^14)hGIP(1-42)-OH] = > 48 h
